measured_on: human dopamine transporter (hDAT) (Homo sapiens, UniProt Q01959)
Sequence (Q01959 whole entry): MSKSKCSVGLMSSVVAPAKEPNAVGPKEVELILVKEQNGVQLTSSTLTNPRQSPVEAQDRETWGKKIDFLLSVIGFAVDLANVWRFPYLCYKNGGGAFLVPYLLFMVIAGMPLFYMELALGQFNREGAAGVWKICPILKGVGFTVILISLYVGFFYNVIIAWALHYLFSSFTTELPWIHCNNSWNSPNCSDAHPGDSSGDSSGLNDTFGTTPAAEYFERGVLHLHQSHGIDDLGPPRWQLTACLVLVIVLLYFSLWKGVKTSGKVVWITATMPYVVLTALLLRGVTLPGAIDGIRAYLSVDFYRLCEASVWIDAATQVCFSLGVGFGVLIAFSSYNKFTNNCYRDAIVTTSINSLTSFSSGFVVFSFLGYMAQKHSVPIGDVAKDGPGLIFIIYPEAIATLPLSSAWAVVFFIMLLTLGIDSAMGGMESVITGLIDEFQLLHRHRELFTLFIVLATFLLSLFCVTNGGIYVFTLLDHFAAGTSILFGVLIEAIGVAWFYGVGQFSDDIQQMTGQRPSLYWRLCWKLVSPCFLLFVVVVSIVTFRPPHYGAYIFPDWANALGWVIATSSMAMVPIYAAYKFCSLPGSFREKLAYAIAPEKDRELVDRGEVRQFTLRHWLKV
measurement_protocol: biochemical
Format: binding
Checkbox rule: Binding discrimination ratio NET/DAT lower than 5 = true (1); Binding discrimination ratio NET/DAT not lower than 5 = false (0).

Lab note: Binding discrimination ratio NET/DAT threshold 5. Does this compound come in strictly under it? Fc1ccc(C(OCCCCN2CCN(c3cccc(Cl)c3)CC2)c2ccc(F)cc2)cc1
true (1)

Lab note: Binding discrimination ratio NET/DAT threshold 5. Does this compound come in strictly under it? Fc1ccc(C(OCCCCN2CCN(c3ccccc3Cl)CC2)c2ccc(F)cc2)cc1
false (0)

Lab note: Binding discrimination ratio NET/DAT threshold 5. Does this compound come in strictly under it? OC1(c2ccc(Br)cc2)CCN(CCCCOC(c2ccc(F)cc2)c2ccc(F)cc2)CC1
false (0)

Lab note: Binding discrimination ratio NET/DAT threshold 5. Does this compound come in strictly under it? O=c1[nH]c2ccccc2n1C1CCN(CCCCOC(c2ccc(F)cc2)c2ccc(F)cc2)CC1
false (0)

Lab note: Binding discrimination ratio NET/DAT threshold 5. Does this compound come in strictly under it? Fc1ccc(C(OCCCCN2CCN(c3ccccc3F)CC2)c2ccc(F)cc2)cc1
false (0)

Lab note: Binding discrimination ratio NET/DAT threshold 5. Does this compound come in strictly under it? CC(=O)C1(c2ccccc2)CCN(CCCCOC(c2ccc(F)cc2)c2ccc(F)cc2)CC1
false (0)

Lab note: Binding discrimination ratio NET/DAT threshold 5. Does this compound come in strictly under it? COc1ccccc1N1CCN(CCCCOC(c2ccc(F)cc2)c2ccc(F)cc2)CC1
true (1)

Lab note: Binding discrimination ratio NET/DAT threshold 5. Does this compound come in strictly under it? OC1CCN(CCCCOC(c2ccc(F)cc2)c2ccc(F)cc2)CC1
false (0)

====

measured_on: human dopamine transporter (hDAT) (Homo sapiens, UniProt Q01959)
measurement_protocol: cell-based
condition_context: read-out: [3H]Dopamine Uptake IC50
Give measured log10 IC50 for each item. Keep answers brief.
// stored as log10 of IC50 expressed in nM

Dear colleague, I am looking for the recorded log10 IC50 of the following compound: Fc1ccc(C(OCCCCN2CCN(c3cccc(Cl)c3)CC2)c2ccc(F)cc2)cc1 [Compound 31651]
3.22

Dear colleague, I am looking for the recorded log10 IC50 of the following compound: O=C1CN(CCCCOC(c2ccc(F)cc2)c2ccc(F)cc2)CCN1 [Compound 31524]
3.36

Dear colleague, I am looking for the recorded log10 IC50 of the following compound: O=c1[nH]c2ccccc2n1C1CCN(CCCCOC(c2ccc(F)cc2)c2ccc(F)cc2)CC1 [Compound 31649]
2.63

Dear colleague, I am looking for the recorded log10 IC50 of the following compound: OC1CCCN(CCCCOC(c2ccc(F)cc2)c2ccc(F)cc2)C1 (stereo not drawn) [Compound 31650]
2.06

Dear colleague, I am looking for the recorded log10 IC50 of the following compound: OC1CCN(CCCCOC(c2ccc(F)cc2)c2ccc(F)cc2)CC1 [Compound 31648]
2.00

Dear colleague, I am looking for the recorded log10 IC50 of the following compound: NC(=O)C1CCCN(CCCCOC(c2ccc(F)cc2)c2ccc(F)cc2)C1 (stereo not drawn) [Compound 31628]
1.75

Dear colleague, I am looking for the recorded log10 IC50 of the following compound: Fc1ccc(C(OCCCCN2CCN(c3ccccc3Cl)CC2)c2ccc(F)cc2)cc1 [Compound 31626]
2.52

Dear colleague, I am looking for the recorded log10 IC50 of the following compound: COc1ccccc1N1CCN(CCCCOC(c2ccc(F)cc2)c2ccc(F)cc2)CC1 [Compound 31654]
2.48

====

measured_on: human dopamine transporter (hDAT) (Homo sapiens)
measurement_protocol: biochemical
Assay type: binding
condition_context: HEK-hDAT cells; bound given in μM; read-out: [125I]RTI-55 binding Ki, DAT
property_measured: Ki

Which Ki is reported with human dopamine transporter (hDAT) (Homo sapiens) for this entry: O=C1c2ccccc2C(=O)N1CCCCN1CCC(O)(c2ccc(Br)cc2)CC1 ?
> 10 µM

====

measured_on: human dopamine transporter (hDAT) (Homo sapiens)
measurement_protocol: biochemical
Format: binding
property_measured: Binding discrimination ratio SERT/DAT
No unit in the answer, please; the number alone is enough.

Dear colleague, I am looking for the recorded Binding discrimination ratio SERT/DAT of the following compound: O=c1[nH]c2ccccc2n1C1CCN(CCCCOC(c2ccc(F)cc2)c2ccc(F)cc2)CC1
2.9

Dear colleague, I am looking for the recorded Binding discrimination ratio SERT/DAT of the following compound: NC(=O)C1CCCN(CCCCOC(c2ccc(F)cc2)c2ccc(F)cc2)C1 (stereo not drawn)
1.4

Dear colleague, I am looking for the recorded Binding discrimination ratio SERT/DAT of the following compound: OC1CCCN(CCCCOC(c2ccc(F)cc2)c2ccc(F)cc2)C1 (stereo not drawn)
4.8

====

measured_on: UniProt Q01959
measurement_protocol: cell-based
condition_context: HEK-hDAT cells; text of Examples 20 and 24; read-out: [3H]Dopamine Uptake IC50
property_measured: IC50 (nM)
Your answer should be a plain number; it is taken to be in nM.

Dear colleague, I am looking for the recorded IC50 of the following compound: OC1(c2ccc(Cl)cc2)CCN(CCCCOC(c2ccc(F)cc2)c2ccc(F)cc2)CC1
400

====

Give measured IC50 for each item. Keep answers brief.
measured_on: human norepinephrine transporter (hNET) (Homo sapiens, UniProt P23975)
Sequence (P23975 whole entry): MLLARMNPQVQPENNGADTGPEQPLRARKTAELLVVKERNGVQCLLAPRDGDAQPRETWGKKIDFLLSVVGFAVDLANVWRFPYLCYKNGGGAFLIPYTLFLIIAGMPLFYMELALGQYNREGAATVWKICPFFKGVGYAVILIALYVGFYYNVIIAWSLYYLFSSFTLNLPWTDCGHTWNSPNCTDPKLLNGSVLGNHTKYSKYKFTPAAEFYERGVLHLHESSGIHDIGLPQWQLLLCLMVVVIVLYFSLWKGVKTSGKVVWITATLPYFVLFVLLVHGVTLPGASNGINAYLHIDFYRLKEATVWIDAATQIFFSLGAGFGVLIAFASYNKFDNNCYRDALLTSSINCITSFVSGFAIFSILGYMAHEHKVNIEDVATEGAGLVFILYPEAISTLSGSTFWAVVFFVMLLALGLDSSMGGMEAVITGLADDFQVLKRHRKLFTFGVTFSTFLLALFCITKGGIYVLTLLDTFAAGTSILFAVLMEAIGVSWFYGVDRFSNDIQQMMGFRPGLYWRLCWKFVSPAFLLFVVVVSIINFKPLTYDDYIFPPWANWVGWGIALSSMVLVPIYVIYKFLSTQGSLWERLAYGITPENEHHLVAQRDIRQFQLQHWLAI
measurement_protocol: cell-based
condition_context: [3H]NE Uptake IC50
Please answer in the form of a number followed by its unit of measurement.

Dear colleague, I am looking for the recorded IC50 of the following compound: Fc1ccc(C(OCCCCN2CCN(c3cccc(C(F)(F)F)c3)CC2)c2ccc(F)cc2)cc1 [Compound 31532]
310 nM

Dear colleague, I am looking for the recorded IC50 of the following compound: Fc1ccc(C(OCCCCN2CCN(c3ccc(Cl)cc3)CC2)c2ccc(F)cc2)cc1 [Compound 31652]
390 nM

Dear colleague, I am looking for the recorded IC50 of the following compound: Fc1ccc(C(OCCCCN2CCN(c3ccccc3F)CC2)c2ccc(F)cc2)cc1 [Compound 31526]
700 nM

Dear colleague, I am looking for the recorded IC50 of the following compound: Fc1ccc(C(OCCCCN2CCN(c3ccc(F)cc3)CC2)c2ccc(F)cc2)cc1 [Compound 31527]
225 nM

Dear colleague, I am looking for the recorded IC50 of the following compound: Fc1ccc(C(OCCCCN2CCN(c3ccccc3)CC2)c2ccc(F)cc2)cc1 [Compound 31653]
56.3 nM

====

Give measured Ki for each item. Keep answers brief.
measured_on: human dopamine transporter (hDAT) (Homo sapiens)
measurement_protocol: biochemical
Format: binding
condition_context: read-out: [125I]RTI-55 binding Ki, DAT
Please answer in the form of a number followed by its unit of measurement.

Dear colleague, I am looking for the recorded Ki of the following compound: Fc1ccc(C(OCCCCN2CCN(c3ccccc3Cl)CC2)c2ccc(F)cc2)cc1
67 nM

Dear colleague, I am looking for the recorded Ki of the following compound: Fc1ccc(C(OCCCCN2CCN(c3cccc(C(F)(F)F)c3)CC2)c2ccc(F)cc2)cc1
32.5 nM

Dear colleague, I am looking for the recorded Ki of the following compound: O=C1CN(CCCCOC(c2ccc(F)cc2)c2ccc(F)cc2)CCN1
4100 nM

Dear colleague, I am looking for the recorded Ki of the following compound: OC1CCCN(CCCCOC(c2ccc(F)cc2)c2ccc(F)cc2)C1 (stereo not drawn)
91 nM

Dear colleague, I am looking for the recorded Ki of the following compound: Fc1ccc(C(OCCCCN2CCN(c3cccc(Cl)c3)CC2)c2ccc(F)cc2)cc1
175 nM

Dear colleague, I am looking for the recorded Ki of the following compound: NC(=O)C1CCCN(CCCCOC(c2ccc(F)cc2)c2ccc(F)cc2)C1 (stereo not drawn)
94 nM

Dear colleague, I am looking for the recorded Ki of the following compound: COc1ccccc1N1CCN(CCCCOC(c2ccc(F)cc2)c2ccc(F)cc2)CC1
26.2 nM

Dear colleague, I am looking for the recorded Ki of the following compound: O=c1[nH]c2ccccc2n1C1CCN(CCCCOC(c2ccc(F)cc2)c2ccc(F)cc2)CC1
1.32 nM

Dear colleague, I am looking for the recorded Ki of the following compound: OC1CCN(CCCCOC(c2ccc(F)cc2)c2ccc(F)cc2)CC1
124 nM

====

measured_on: human dopamine transporter (hDAT) (Homo sapiens, UniProt Q01959)
measurement_protocol: biochemical
Type: binding
property_measured: Binding discrimination ratio SERT/DAT
No unit in the answer, please; the number alone is enough.

Dear colleague, I am looking for the recorded Binding discrimination ratio SERT/DAT of the following compound: CC(=O)C1(c2ccccc2)CCN(CCCCOC(c2ccc(F)cc2)c2ccc(F)cc2)CC1 [Compound 31525]
5.8

Dear colleague, I am looking for the recorded Binding discrimination ratio SERT/DAT of the following compound: OC1(c2ccc(Br)cc2)CCN(CCCCOC(c2ccc(F)cc2)c2ccc(F)cc2)CC1 [Compound 31530]
9.7

Dear colleague, I am looking for the recorded Binding discrimination ratio SERT/DAT of the following compound: Fc1ccc(C(OCCCCN2CCNC(c3ccccc3)C2)c2ccc(F)cc2)cc1 (centres unmarked) [Compound 31533]
19.6

Dear colleague, I am looking for the recorded Binding discrimination ratio SERT/DAT of the following compound: Fc1ccc(C(OCCCCN2CCN(c3ccccc3Cl)CC2)c2ccc(F)cc2)cc1 [Compound 31626]
1.3

Dear colleague, I am looking for the recorded Binding discrimination ratio SERT/DAT of the following compound: Fc1ccc(C(OCCCCN2CCN(c3ccc(F)cc3)CC2)c2ccc(F)cc2)cc1 [Compound 31527]
1.3

Dear colleague, I am looking for the recorded Binding discrimination ratio SERT/DAT of the following compound: Fc1ccc(C(OCCCCN2CCN(c3cccc(Cl)c3)CC2)c2ccc(F)cc2)cc1 [Compound 31651]
0.8

Dear colleague, I am looking for the recorded Binding discrimination ratio SERT/DAT of the following compound: Fc1ccc(C(OCCCCN2CCN(c3ccccc3F)CC2)c2ccc(F)cc2)cc1 [Compound 31526]
0.8
